Exercise: for every item that follows, state its recorded Death dose.
system: BALB/C mouse; test: MTD (maximum tolerated dose) acute toxicity in mice; assay type: in vivo; conditions: intravenous, observed 17 days
Residues, ends and D or L forms follow the SMILES beside them. *: point of attachment. Doxorubicin(3'-N) = COc1cccc2c1C(=O)c1c(O)c3c(c(O)c1C2=O)C[C@@](O)(C(=O)CO)C[C@@H]3O[C@H]1C[C@H](N*)[C@H](O)[C@H](C)O1; Hexanoyl(6-maleimido) = O=C1C=CC(=O)N1CCCCCC(=O)*
Numeric answer only, unit mg/kg assumed.

Query: Give a short answer stating reported Death dose for COc1cccc2c1C(=O)c1c(O)c3c(c(O)c1C2=O)C[C@@](O)(C(=O)CO)C[C@@H]3O[C@H]1C[C@H](NC(=O)[C@H](CC(C)C)NC(=O)[C@H](CC(N)=O)NC(=O)[C@H](C)NC(=O)[C@H](C)NC(=O)CCCCCN2C(=O)C=CC2=O)[C@H](O)[C@H](C)O1 [Compound C11, EMC-AANL-Adriamycin, reference compound] ({Hexanoyl(6-maleimido)}-AANL-{Doxorubicin(3'-N)}) .
Result: 120

Query: Give a short answer stating reported Death dose for COc1cccc2c1C(=O)c1c(O)c3c(c(O)c1C2=O)C[C@](O)(C(=O)CO)CC3OC1C[C@H](NC(=O)OCc2ccc(NC(=O)C(CC(N)=O)NC(=O)C(C)NC(=O)C(C)NC(=O)[C@H](O)[C@H](O)[C@@H](O[C@@H]3O[C@H](CO)[C@H](O)[C@H](O)[C@H]3O)[C@H](O)CO)cc2)[C@H](O)[C@H](C)O1 (stereo partly shown) [Compound S3, Lacto-AAN-PABC-Adriamycin] .
Result: 110

Query: Give a short answer stating reported Death dose for CC(NC(=O)C(NC(=O)[C@H](O)[C@H](O)[C@@H](O[C@@H]1O[C@H](CO)[C@H](O)[C@H](O)[C@H]1O)[C@H](O)CO)C(C)O)C(=O)NC(CC(N)=O)C(=O)Nc1ccc(COC(=O)Nc2c(-c3nc4ccc(N5CCN(C)CC5)cc4[nH]3)c(=O)[nH]c3cccc(F)c23)cc1 (stereo partly shown) [Compound S17] .
Result: 310

Query: Give a short answer stating reported Death dose for CC(NC(=O)C(C)NC(=O)[C@H](O)[C@H](O)[C@@H](O[C@@H]1O[C@H](CO)[C@H](O)[C@H](O)[C@H]1O)[C@H](O)CO)C(=O)NC(CC(N)=O)C(=O)Nc1ccc(COC(=O)Nc2c(-c3nc4ccc(N5CCN(C)CC5)cc4[nH]3)c(=O)[nH]c3cccc(F)c23)cc1 (stereo partly shown) [Compound S5] .
Result: 320
